System: T1, human TMEM106B (human, UniProt Q9NUM4 2-274)
T1 construct: Full-length, on transiently transfected HEK293 cells, or natively expressed on HeLa, U251 and A549 cells; also called huTMEM106B; huTMEM
Method: FACS A549
Each entry below lists one item and its recorded MFI value.
Note: the reply should be a number with no unit written.

Example entries and their recorded answers appear below.
anti-TMEM106B antibody TM-33 (antibody, V domains shown, mouse IgG from hybridoma) VH: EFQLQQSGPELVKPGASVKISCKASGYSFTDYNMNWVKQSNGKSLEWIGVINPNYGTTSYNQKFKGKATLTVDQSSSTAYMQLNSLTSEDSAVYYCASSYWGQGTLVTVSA VL: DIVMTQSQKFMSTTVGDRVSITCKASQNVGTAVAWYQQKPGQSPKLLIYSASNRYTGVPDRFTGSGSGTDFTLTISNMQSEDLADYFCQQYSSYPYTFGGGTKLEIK :: 298
anti-TMEM106B antibody TM-35 (antibody, V domains shown) VH: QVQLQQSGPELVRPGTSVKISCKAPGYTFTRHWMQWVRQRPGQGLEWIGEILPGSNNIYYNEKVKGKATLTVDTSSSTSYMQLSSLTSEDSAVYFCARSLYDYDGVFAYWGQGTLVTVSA VL: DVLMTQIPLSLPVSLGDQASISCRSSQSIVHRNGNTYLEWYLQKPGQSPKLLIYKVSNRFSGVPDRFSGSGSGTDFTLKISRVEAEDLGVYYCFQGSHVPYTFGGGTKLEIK :: 982

In the following, a different binder is considered.
GET /value?item= anti-TMEM106B antibody TM-6 (antibody, V domains shown, mouse IgG from hybridoma) VH: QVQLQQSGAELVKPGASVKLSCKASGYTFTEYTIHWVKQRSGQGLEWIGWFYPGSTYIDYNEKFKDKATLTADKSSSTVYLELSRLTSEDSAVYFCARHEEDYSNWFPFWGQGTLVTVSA VL: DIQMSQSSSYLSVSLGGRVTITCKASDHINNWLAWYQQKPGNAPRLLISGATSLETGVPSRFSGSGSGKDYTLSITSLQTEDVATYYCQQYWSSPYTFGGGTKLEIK &field=MFI returns 1100
